B1: CPEB3 Ribozyme (parent)
chain: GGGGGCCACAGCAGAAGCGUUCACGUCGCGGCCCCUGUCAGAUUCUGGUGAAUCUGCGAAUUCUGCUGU

Variants of: B1
Assay: self-cleavage, relative activity (ratio to wild type); higher = more cleavage; co-transcriptional
self-cleavage of 0.8 or higher: TRUE. Under 0.8: FALSE.

Test whether the variant G11C A15C records self-cleavage of 0.8 or higher. FALSE

Answer whether self-cleavage of C32U U46C is greater than or equal to 0.8. TRUE

Evaluate U21C G41C : self-cleavage at minimum 0.8? FALSE

Is self-cleavage at least 0.8? Consider A15C C29U FALSE

Is the recorded value of self-cleavage equal to or greater than 0.8 for this variant? G50U G58A TRUE

Threshold query (self-cleavage >= 0.8) on A16C G19A FALSE

Check this variant for self-cleavage at or above 0.8: C35U C39G TRUE

Identify whether the reported self-cleavage of the following variant is 0.8 or greater: G37C A60C FALSE

Please tell me: is the variant C45U U55A at or over 0.8 in terms of self-cleavage? TRUE

self-cleavage >= 0.8 for A8C A42G ? TRUE

Evaluate G11U A15U : self-cleavage at minimum 0.8? FALSE

Check the entry G11C U67A : does self-cleavage equal or exceed 0.8? TRUE

Entry G5C G68C : is its self-cleavage no less than 0.8? FALSE

Given G11C U21C , state whether its self-cleavage is at least 0.8. FALSE

Say whether G17A A23C shows self-cleavage of 0.8 or more. FALSE
